TARGET_ENTITY: SARS-CoV-2 nsp14 guanine-N7 methyltransferase (Severe acute respiratory syndrome coronavirus 2, UniProt P0DTD1)
Format: biochemical
Structures can show the parent of a compound that is named as a salt.
Decision: Z-Score in primary screen >= 4 yields MET, all other cases yield NOT MET.

compound="CNCCCN1c2ccccc2CCc2ccccc21 [Desipramine hydrochloride]" assigned_label=MET
compound=Cc1c(C(=O)O)c(O)cc2c1C(=O)c1c(O)c([C@@H]3O[C@H](CO)[C@@H](O)[C@H](O)[C@H]3O)c(O)c(O)c1C2=O assigned_label="NOT MET"
compound="Cl.Cl.Cl.Ic1ccc(N2CCN(Cc3c[nH]c4ncccc34)CC2)cc1 [L-750,667 trihydrochloride]" assigned_label="NOT MET"
compound="CCCCCCCCCCCCCC(=O)O[C@@H]1[C@@H](C)[C@@]2(O)[C@@H](C=C(CO)C[C@]3(O)C(=O)C(C)=C[C@@H]23)[C@@H]2C(C)(C)[C@]12OC(C)=O [Phorbol 12-myristate 13-acetate]" assigned_label=MET
compound="CCCCN1CCCCC1C(=O)Nc1c(C)cccc1C (centres unmarked)" assigned_label="NOT MET"
compound=O=C(CCCN1CCC(O)(c2cccc(C(F)(F)F)c2)CC1)c1ccc(F)cc1 assigned_label=MET
compound="CN1CCc2cc(Cl)c(O)cc2[C@@H](c2ccccc2)C1.Cl [R(+)-SCH-23390 hydrochloride]" assigned_label="NOT MET"
compound=Nc1ccc(C(=O)O)cc1 assigned_label="NOT MET"
compound=COc1cc2c(cc1OC)CC(=O)N(CCCN(C)C[C@H]1Cc3cc(OC)c(OC)cc31)CC2 assigned_label="NOT MET"
compound="CCCCC[C@H](O)/C=C/C=C\\C/C=C\\C=C\\[C@@H](O)CCCC(=O)O [5(S),15(S)-DIHETE]" assigned_label="NOT MET"
compound="Nc1ncnc2c1ncn2C1CCCO1 (centres unmarked)" assigned_label="NOT MET"
compound=CCN1C[C@]2(C)CC[C@H](O)[C@]34C1[C@@H](C[C@H]23)[C@@]1(O)C[C@H](OC)[C@H]2C[C@@H]4[C@@H]1[C@H]2O assigned_label="NOT MET"
compound="CCC1(C)CC(=O)NC1=O (centres unmarked) [Ethosuximide]" assigned_label="NOT MET"
compound=O=C(O)CCCCCCC(=O)O assigned_label="NOT MET"
compound=c1ccc(CNc2nc(NCc3ccccc3)c3ccccc3n2)cc1 assigned_label=MET
